- assay system: Syk kinase (Homo sapiens, UniProt P43405)
- Construct: purchased Upstate, Lake Placid N.Y
- test details: Syk kinase biochemical fluorescence polarization assay
- reported conditions: isolated Syk kinase, 11-point, read-out: fp_syk, 11pt
pIC50: −log10 of the molar value.
Catalogue of pIC50 values

- O=C1COc2ccc(Nc3ncc(F)c(Nc4ccc5c(c4)NC(=O)CO5)n3)cc2N1: > 5.00

Consider the additional compound presented here.
Which pIC50 is listed for CC1(C)Oc2ccc(Nc3nc(Nc4cccc(-c5cnco5)c4)ncc3F)cc2NC1=O ? > 5.00

---

Property: pIC50; scope: individual compounds
- assay system: Syk kinase (Homo sapiens)
- Construct: purchased Upstate, Lake Placid N.Y
- test details: Syk kinase biochemical fluorescence polarization assay
- reported conditions: isolated Syk kinase, 4 uM ATP, 11pt, read-out: fp_syk, 11pt
pIC50: −log10 of the molar value.

- COC(=O)CCNC(=O)c1ccc(Nc2ncc(F)c(Nc3ccc4c(n3)NC(=O)C(C)(C)O4)n2)cc1: > 5.00

Given the entry COC(=O)CNC(=O)c1ccc(Nc2ncc(F)c(Nc3ccc4c(c3)NC(=O)C(C)(C)O4)n2)cc1 , report its measured pIC50. > 5.00

Given the compound COc1cc(Nc2ncc(F)c(Nc3ccc4c(n3)NCCO4)n2)cc(OC)c1OC , what is its reported pIC50? > 5.00
